As shown below, each of these binders has a reported SPOT peptide array binding signal intensity value.
Molecular target: CaBzz1-D1
Assay: SPOT peptide array binding signal intensity (averaged, normalized) (arbitrary units (background-subtracted, floor 0; scale differs between SH3 domains)); higher = stronger binding of the SH3 domain to the peptide
MEASURE NAME: SPOT peptide array binding signal intensity

BINDER: TSFKGRPKPPKTLKH
VALUE RELATION SIGN: =
VAL: 80.5
--
BINDER: ISRRRLPVIMHRLKM
VALUE RELATION SIGN: =
VAL: 49
--
BINDER: TEVPIPRRPPPPQAA
VALUE RELATION SIGN: =
VAL: 32
--
BINDER: FIRKRAPTPPAPSRS
VALUE RELATION SIGN: =
VAL: 1840
--
BINDER: RKRRTHLRLPLIRSN
VALUE RELATION SIGN: =
VAL: 73.5
--
BINDER: KRKRFNLLLPKPYLT
VALUE RELATION SIGN: =
VAL: 28
--
BINDER: QNTPPLPPKPKSPHL
VALUE RELATION SIGN: =
VAL: 46.5
--
BINDER: HGKRRAPLLLAKLDV
VALUE RELATION SIGN: =
VAL: 94
--
BINDER: NLDRSKISLPDFDDE
VALUE RELATION SIGN: =
VAL: 31
--
BINDER: TPEIPPPLPPKIMVH
VALUE RELATION SIGN: ≤
VAL: 0
--
BINDER: YVRRRPRVRLEPLLS
VALUE RELATION SIGN: =
VAL: 184
--
BINDER: HKVLRPFLLRRLKKD
VALUE RELATION SIGN: ≤
VAL: 0
--
BINDER: SRSKPLPLTPNSKYN
VALUE RELATION SIGN: =
VAL: 384
--
BINDER: SNRRPVPRRPSQPLN
VALUE RELATION SIGN: =
VAL: 380
--
BINDER: ALKQKKIPPPFKPHL
VALUE RELATION SIGN: =
VAL: 589

These measurements were taken from the supplement of paper PMC4466140.
